Recorded values, source patent US20240343740A1.

- ASSAY_SYSTEM: human GLP-1R (Homo sapiens, UniProt P43220)
- Sequence (P43220 24-463): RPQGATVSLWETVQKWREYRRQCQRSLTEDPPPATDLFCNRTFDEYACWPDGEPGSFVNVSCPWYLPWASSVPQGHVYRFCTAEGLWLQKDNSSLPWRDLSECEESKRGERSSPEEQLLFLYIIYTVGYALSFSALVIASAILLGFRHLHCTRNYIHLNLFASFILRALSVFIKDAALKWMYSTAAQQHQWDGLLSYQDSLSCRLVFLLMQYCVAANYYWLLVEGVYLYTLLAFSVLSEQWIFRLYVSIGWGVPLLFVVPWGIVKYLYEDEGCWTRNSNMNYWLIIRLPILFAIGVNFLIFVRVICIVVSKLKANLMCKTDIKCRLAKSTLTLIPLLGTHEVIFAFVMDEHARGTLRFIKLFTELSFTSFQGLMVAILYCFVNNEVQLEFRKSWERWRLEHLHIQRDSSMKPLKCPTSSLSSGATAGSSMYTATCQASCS
- PROTOCOL_DESCRIPTION: Human GLP-1 Receptor HEK293 cell cAMP assay, 581 fmol/mg GLP-1R expression density
- Assay type: cell-based
- Parameters: expressed in transfected cells; host or cells: HEK293 clonal cell line
- RECORDED_CONDITIONS: HEK293 cell line with 581 fmol/mg expression density of GLP-1R; percent of maximal response to GLP-1(7-36)NH2; arithmetic mean; read-out: Emax % (SEM, n), intracellular cAMP response
Reported Emax values follow for various molecules

{"STRUCTURE_AS_SMILES": "COc1cc(C(=O)O)cc2c1nc(Cc1cc(C)c3cc1OCCCc1nc(C(F)(F)F)ccc1COc1cccc-3n1)n2C[C@@H]1CCO1", "ASSAY_SYSTEM": "human GLP-1R (Homo sapiens, UniProt P43220)", "Emax (%)": 116}
{"STRUCTURE_AS_SMILES": "N#Cc1ccc2c(c1)CCCOc1cc(c(F)cc1Cc1nc3ccc(C(=O)O)cc3n1C[C@@H]1CCO1)-c1cccc(n1)OC2", "ASSAY_SYSTEM": "human GLP-1R (Homo sapiens, UniProt P43220)", "Emax (%)": 95}
{"STRUCTURE_AS_SMILES": "N#Cc1ccc2c(c1)CCCOc1cc(ccc1Cc1nc3c(F)cc(C(=O)O)cc3n1C[C@@H]1CCO1)-c1cccc(n1)OC2", "ASSAY_SYSTEM": "human GLP-1R (Homo sapiens, UniProt P43220)", "Emax (%)": 104}
{"STRUCTURE_AS_SMILES": "Cn1cc(-c2ccc3c(c2)CCCOc2cc(ccc2Cc2nc4ccc(C(=O)O)cc4n2C[C@@H]2CCO2)-c2cccc(n2)OC3)ccc1=O", "ASSAY_SYSTEM": "human GLP-1R (Homo sapiens, UniProt P43220)", "Emax (%)": 108}
{"STRUCTURE_AS_SMILES": "COCCOc1cc(C(=O)O)cc2c1nc(Cc1cc(F)c3cc1COCCc1cc(C#N)cc(F)c1COc1cccc-3n1)n2C[C@@H]1CCO1", "ASSAY_SYSTEM": "human GLP-1R (Homo sapiens, UniProt P43220)", "Emax (%)": 92.3}
{"STRUCTURE_AS_SMILES": "COc1cc(C(=O)O)cc2c1nc(Cc1cc(C)c3cc1OCCCc1cnccc1COc1cccc-3n1)n2C[C@@H]1CCO1", "ASSAY_SYSTEM": "human GLP-1R (Homo sapiens, UniProt P43220)", "Emax (%)": 107}

---

- ASSAY_SYSTEM: human GLP-1R (Homo sapiens, UniProt P43220)
- PROTOCOL_DESCRIPTION: Human GLP-1 Receptor HEK293 cell cAMP assay, 104 fmol/mg GLP-1R expression density
- Type: cell-based
- Parameters: expressed in transfected cells; host or cells: HEK293 clonal cell line
- RECORDED_CONDITIONS: HEK293 cell line with 104 fmol/mg expression density of GLP-1R; geometric mean; read-out: EC50 nM (SEM, n), intracellular cAMP response, relative EC50
- Description: Human GLP-1 Receptor HEK293 Cell cAMP Assay GLP-1 Receptor functional activity is determined using cAMP formation in an HEK293 clonal cell line expressing human GLP-1R (NCBI accession number NP_002053) at an expression density of 581±94 (n=6) and 104±12 (n=5) fmol/mg protein (determined using [^125I]GLP-1(7-36)NH2 homologous competition binding analysis). […]
EXPERIMENTAL_READOUT: EC50

{"STRUCTURE_AS_SMILES": "COCCOc1cc(C(=O)O)cc2c1nc(Cc1cc(F)c3cc1COCc1cc(Cl)ccc1COc1cccc-3n1)n2C[C@@H]1CCO1", "EXPERIMENTAL_READOUT": "EC50", "EXPERIMENTAL_RESULT": "6.88 nM"}
{"STRUCTURE_AS_SMILES": "N#Cc1ccc2c(c1)CCOCc1cc(ccc1Cc1nc3c(F)cc(C(=O)O)cc3n1C[C@@H]1CCO1)-c1cccc(n1)OC2", "EXPERIMENTAL_READOUT": "EC50", "EXPERIMENTAL_RESULT": "79.1 nM"}
{"STRUCTURE_AS_SMILES": "CN(C)CCOc1cc(C(=O)O)cc2c1nc(Cc1ccc3cc1COCCc1cc(Cl)ccc1COc1cccc-3n1)n2C[C@@H]1CCO1", "EXPERIMENTAL_READOUT": "EC50", "EXPERIMENTAL_RESULT": "131 nM"}

---

- ASSAY_SYSTEM: human GLP-1R (Homo sapiens, UniProt P43220)
- PROTOCOL_DESCRIPTION: Human GLP-1 Receptor HEK293 cell cAMP assay, 581 fmol/mg GLP-1R expression density
- Assay type: cell-based
- Parameters: expressed in transfected cells; host or cells: HEK293 clonal cell line
- RECORDED_CONDITIONS: HEK293 cell line with 581 fmol/mg expression density of GLP-1R; geometric mean; read-out: EC50 nM (SEM, n), intracellular cAMP response, relative EC50
Counter-ions that a name gives are not always drawn.
Mark T only for EC50 values smaller than 70 nM; exact matches and larger values are F.

{"COMPOUND": "COCCOc1cc(C(=O)O)cc2c1nc(Cc1ccc3cc1COCCc1cc(C(F)(F)F)ncc1COc1cccc-3n1)n2C[C@@H]1CCO1", "ASSAY_SYSTEM": "human GLP-1R (Homo sapiens, UniProt P43220)", "CATEGORY_LABEL": "T"}
{"COMPOUND": "N#Cc1ccc2c(c1)CCCOc1cc(ccc1Cc1nc3c(F)cc(C(=O)O)cc3n1C[C@@H]1CCO1)-c1cccc(n1)OC2", "ASSAY_SYSTEM": "human GLP-1R (Homo sapiens, UniProt P43220)", "CATEGORY_LABEL": "T"}
{"COMPOUND": "O=C(O)c1ccc2nc(Cc3ccc4cc3OCCCc3cc(-c5cnn(C6CC6)c5)ccc3COc3cccc-4n3)n(C[C@@H]3CCO3)c2c1", "ASSAY_SYSTEM": "human GLP-1R (Homo sapiens, UniProt P43220)", "CATEGORY_LABEL": "F"}
{"COMPOUND": "O=C(O)c1ccc2nc(Cc3ccc4cc3OCCCc3cc(Br)ccc3COc3cccc-4n3)n(C[C@@H]3CCO3)c2c1", "ASSAY_SYSTEM": "human GLP-1R (Homo sapiens, UniProt P43220)", "CATEGORY_LABEL": "T"}
{"COMPOUND": "O=C(O)c1ccc2nc(Cc3ccc4cc3OCCCc3cc(-c5cnn(CC6COC6)c5)ccc3COc3cccc-4n3)n(C[C@@H]3CCO3)c2c1", "ASSAY_SYSTEM": "human GLP-1R (Homo sapiens, UniProt P43220)", "CATEGORY_LABEL": "F"}
{"COMPOUND": "COCCOc1cc(C(=O)O)cc2c1nc(Cc1cc(F)c3cc1CCOCc1cc(ccc1Cl)COc1cccc-3n1)n2C[C@@H]1CCO1", "ASSAY_SYSTEM": "human GLP-1R (Homo sapiens, UniProt P43220)", "CATEGORY_LABEL": "T"}
{"COMPOUND": "COc1cc(C(=O)O)cc2c1nc(Cc1cc(F)c3cc1OCCCc1cc(C#N)cnc1COc1cccc-3n1)n2C[C@@H]1CCO1 [Example 43, diformate salt]", "ASSAY_SYSTEM": "human GLP-1R (Homo sapiens, UniProt P43220)", "CATEGORY_LABEL": "T"}
{"COMPOUND": "COc1cc(C(=O)O)cc2c1nc(Cc1cc(F)c3cc1COCc1cc(C#N)ccc1COc1cccc-3n1)n2C[C@@H]1CCO1", "ASSAY_SYSTEM": "human GLP-1R (Homo sapiens, UniProt P43220)", "CATEGORY_LABEL": "T"}
{"COMPOUND": "COc1cc(C(=O)O)cc2c1nc(Cc1cc(F)c3cc1CCOCc1cc(C#N)ccc1COc1cccc-3n1)n2C[C@@H]1CCO1", "ASSAY_SYSTEM": "human GLP-1R (Homo sapiens, UniProt P43220)", "CATEGORY_LABEL": "T"}
{"COMPOUND": "CN(C)C(=O)COc1cc(C(=O)O)cc2c1nc(Cc1ccc3cc1OCCCc1cc(C#N)ccc1COc1cccc-3n1)n2C[C@@H]1CCO1", "ASSAY_SYSTEM": "human GLP-1R (Homo sapiens, UniProt P43220)", "CATEGORY_LABEL": "F"}
{"COMPOUND": "N#Cc1ccc2cc1CCCOc1cc(c(F)cc1Cc1nc3ccc(C(=O)O)cc3n1C[C@@H]1CCO1)-c1cccc(n1)OC2", "ASSAY_SYSTEM": "human GLP-1R (Homo sapiens, UniProt P43220)", "CATEGORY_LABEL": "T"}
{"COMPOUND": "O=C(O)c1ccc2nc(Cc3ccc4cc3OCCCc3cc(-c5cn[nH]c5)ccc3COc3cccc-4n3)n(C[C@@H]3CCO3)c2c1", "ASSAY_SYSTEM": "human GLP-1R (Homo sapiens, UniProt P43220)", "CATEGORY_LABEL": "T"}
{"COMPOUND": "N#Cc1ccc2c(c1)CCCOc1cc(ccc1Cc1nc3ccc(C(=O)O)nc3n1C[C@@H]1CCO1)-c1cccc(n1)OC2", "ASSAY_SYSTEM": "human GLP-1R (Homo sapiens, UniProt P43220)", "CATEGORY_LABEL": "F"}
{"COMPOUND": "Nc1cc(-c2ccc3c(c2)CCCOc2cc(ccc2Cc2nc4ccc(C(=O)O)cc4n2C[C@@H]2CCO2)-c2cccc(n2)OC3)ccn1", "ASSAY_SYSTEM": "human GLP-1R (Homo sapiens, UniProt P43220)", "CATEGORY_LABEL": "F"}
{"COMPOUND": "COCCOc1cc(C(=O)O)cc2c1nc(Cc1ccc3cc1COCCc1cc(C#N)ccc1COc1ccc(F)c-3n1)n2C[C@@H]1CCO1", "ASSAY_SYSTEM": "human GLP-1R (Homo sapiens, UniProt P43220)", "CATEGORY_LABEL": "T"}
{"COMPOUND": "CN(C)CCOc1cc(C(=O)O)cc2c1nc(Cc1ccc3cc1COCCc1cc(Cl)ccc1COc1cccc-3n1)n2C[C@@H]1CCO1", "ASSAY_SYSTEM": "human GLP-1R (Homo sapiens, UniProt P43220)", "CATEGORY_LABEL": "T"}
{"COMPOUND": "N#Cc1ccc2c(c1)CCOCc1cc(ccc1Cc1nc3ccc(C(=O)O)cc3n1C[C@@H]1CCO1)-c1cccc(n1)OC2", "ASSAY_SYSTEM": "human GLP-1R (Homo sapiens, UniProt P43220)", "CATEGORY_LABEL": "T"}
{"COMPOUND": "COc1ccc(-c2ccc3c(c2)CCCOc2cc(ccc2Cc2nc4ccc(C(=O)O)cc4n2C[C@@H]2CCO2)-c2cccc(n2)OC3)cn1", "ASSAY_SYSTEM": "human GLP-1R (Homo sapiens, UniProt P43220)", "CATEGORY_LABEL": "F"}
{"COMPOUND": "N#Cc1ccc2c(c1)COCc1cc(c(F)cc1Cc1nc3ccc(C(=O)O)cc3n1C[C@@H]1CCO1)-c1cccc(n1)OC2", "ASSAY_SYSTEM": "human GLP-1R (Homo sapiens, UniProt P43220)", "CATEGORY_LABEL": "F"}
